# Measurement Notes: Experiments 2-3: HepaRG/BJ co-culture separated by GrowDex barrier, dosing via HepaRG, WST-1, HepaRG side
# Type: cell-based
# Experimental Conditions: human; 10 μg/ml, 3 hrs; read-out: decrease of HepaRG viability
Structures can show the parent of a compound that is named as a salt.
Assay Metric: cytotoxicity at 3 h, 10 μg/ml

Request: Which cytotoxicity at 3 h, 10 μg/ml is reported for this compound? C#CCN(C)[C@H](C)Cc1ccccc1 [selegiline, Selegiline hydrochloride]
Response: ~5%

----------
# Measurement Notes: Leakage Test 2: 3D-printed 1.5% GrowDex barriers, BJ cells outside, chemical dosed inside, WST-1
# Assay type: cell-based, Human
# Experimental Conditions: human, 100 μg/ml exposure, across barrier, read-out: reduction in BJ viability
Structures can show the parent of a compound that is named as a salt.
Assay Metric: cytotoxicity at 24 h, 100 μg/ml (%)
Enter your answer as a number in %; do not include the unit.

Request: Return reported cytotoxicity at 24 h, 100 μg/ml; argument: CN(C)CCC=C1c2ccccc2CCc2ccccc21 [Amitriptyline hydrochloride]
Response: 10
